Listed here: items and their measured selective drug sensitivity score.
# Tested on: MN-60;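 further: ALL cell lines in 384-well plates, five doses spanning 10,000-fold, each plate scaled between vehicle and 100 µmol/L benzalkonium chloride controls, sDSS an adapted area-under-curve metric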
# EXPERIMENT DESCRIPTION: selective drug sensitivity score (sDSS, relative to normal bone marrow) (sDSS (score)); higher = more potent and effective on the cell line relative to normal bone marrow cells
# CONDITION NOTES: 72 h

[
  {
    "COMPOUND": "CCN(CCO)CCCOc1ccc2c(Nc3cc(CC(=O)Nc4cccc(F)c4)[nH]n3)ncnc2c1 [AZD1152-HQPA] (top concentration 1000 nM)",
    "selective drug sensitivity score": -2.46
  },
  {
    "COMPOUND": "COc1ccc(-c2ccc3c(N4CCOC[C@@H]4C)nc(N4CCOC[C@@H]4C)nc3n2)cc1CO [AZD8055] (top concentration 10000 nM)",
    "selective drug sensitivity score": 7.98
  },
  {
    "COMPOUND": "C[C@@H](Nc1cc(F)cc(F)c1)c1cc(C(=O)N(C)C)cc2c(=O)cc(N3CCOCC3)oc12 [AZD-8186] (top concentration 1000 nM)",
    "selective drug sensitivity score": -0.26
  },
  {
    "COMPOUND": "Nc1ccn([C@@H]2O[C@H](CO)[C@@H](O)C2(F)F)c(=O)n1 [Gemcitabine] (top concentration 1000 nM)",
    "selective drug sensitivity score": -0.34
  },
  {
    "COMPOUND": "C[C@H]1CN(C2COC2)CCN1c1ccc(Nc2cc(-c3ccnc(N4CCn5c(cc6c5CC(C)(C)C6)C4=O)c3CO)cn(C)c2=O)nc1 [GDC-0853] (top concentration 1000 nM)",
    "selective drug sensitivity score": 0
  },
  {
    "COMPOUND": "Nc1cccc2c1C(=O)N(C1CCC(=O)NC1=O)C2=O (centres undefined) [Pomalidomide] (top concentration 10000 nM)",
    "selective drug sensitivity score": -0.26
  },
  {
    "COMPOUND": "COc1cc2c(cc1-c1c(C)noc1C)ncc1[nH]c(=O)n([C@H](C)c3ccccn3)c12 [I-BET151] (top concentration 10000 nM)",
    "selective drug sensitivity score": 6.76
  },
  {
    "COMPOUND": "Cn1cc(-c2ccc(F)c(C(F)(F)F)c2)nc1C1CCN(c2ncnc3[nH]ncc23)CC1 (top concentration 10000 nM)",
    "selective drug sensitivity score": -0.14
  },
  {
    "COMPOUND": "O=C(O)CC[C@H]1CC[C@@](c2cc(F)ccc2F)(S(=O)(=O)c2ccc(Cl)cc2)CC1 [MK-0752] (top concentration 1000 nM)",
    "selective drug sensitivity score": 0
  }
]
